The measurements presented in this section are drawn from patent US6656911B2.

study_system: human neutrophil elastase (HNE) (Homo sapiens)
protocol: HNE Ki of CE compounds, tested as described in WO 96/16080
Type: biochemical
condition_parameters: read-out: HNE Ki
pKi: −log10 of the molar value.
experimental_readout: pKi

1 = CC(C)[C@H](NC(=O)[C@@H]1CCCN1C(=O)[C@@H](NC(=O)OCc1ccccc1)C(C)C)C(=O)c1nnc(Cc2cccc(C(F)(F)F)c2)o1
2 = Cc1cccc(Cc2nnc(C(=O)[C@@H](NC(=O)CN3C(=O)N[C@H](C(C)C)C3=O)C(C)C)o2)c1
3 = Cc1cccc(Cc2nnc(C(=O)[C@@H](NC(=O)CN3C(=O)CN(C(=O)OCc4ccccc4)C[C@H]3Cc3ccccc3)C(C)C)o2)c1
Challenge: List from greatest to least pKi. // rank by listing labels in the order requested
Response given: 1, 2, 3
(1: 10.41, 2: 7.82, 3: 7.54)

* * *

study_system: human neutrophil elastase (HNE) (Homo sapiens)
Sequence (P08246 30-267): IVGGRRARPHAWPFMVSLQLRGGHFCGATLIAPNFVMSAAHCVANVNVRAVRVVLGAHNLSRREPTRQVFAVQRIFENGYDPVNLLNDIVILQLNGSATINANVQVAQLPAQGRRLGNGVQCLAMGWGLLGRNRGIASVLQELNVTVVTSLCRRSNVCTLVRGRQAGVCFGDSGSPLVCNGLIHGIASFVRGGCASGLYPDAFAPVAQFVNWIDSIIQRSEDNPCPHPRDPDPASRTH
protocol: HNE Ki of CE compounds, tested as described in WO 96/16080
Type: biochemical
condition_parameters: read-out: HNE Ki
experimental_readout: Ki (nM)

>  <molecule>
Cc1cccc(Cc2nnc(C(=O)[C@@H](NC(=O)CN3C(=O)CN(CCN4CCOCC4)C(=O)[C@H]3Cc3ccccc3)C(C)C)o2)c1

>  <experimental_readout>
Ki

>  <observed_result>
10.6

$$$$
>  <molecule>
Cc1cccc(Cc2nnc(C(=O)C(NC(=O)CN3C(=O)C(N)N=C(c4ccccc4Cl)c4cc(Cl)ccc43)C(C)C)o2)c1 (stereo not drawn)

>  <experimental_readout>
Ki

>  <observed_result>
9.5

$$$$
>  <molecule>
Cc1cccc(Cc2nnc(C(=O)C(NC(=O)CN3C(=O)C(Cc4ccccc4)N(CCN4CCOCC4)C3=O)C(C)C)o2)c1 (stereo not drawn)

>  <experimental_readout>
Ki

>  <observed_result>
8.2

$$$$

* * *

study_system: human neutrophil elastase (HNE) (Homo sapiens)
Sequence (P08246 30-267): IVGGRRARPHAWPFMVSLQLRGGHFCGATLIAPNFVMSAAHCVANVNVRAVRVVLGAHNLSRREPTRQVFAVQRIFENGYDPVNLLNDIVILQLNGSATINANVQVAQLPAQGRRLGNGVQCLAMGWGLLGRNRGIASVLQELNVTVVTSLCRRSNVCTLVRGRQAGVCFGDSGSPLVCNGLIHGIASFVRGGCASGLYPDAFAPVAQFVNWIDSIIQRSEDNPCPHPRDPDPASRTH
protocol: HNE Ki of CE compounds, tested as described in WO 96/16080
Type: biochemical
condition_parameters: read-out: HNE Ki
experimental_readout: pKi
Scale explanation: pKi corresponds to minus log10 of a concentration expressed in moles per litre.

>  <molecule>
CCCCc1nnc(C(=O)C(NC(=O)CN2C(=O)C(N)N=C(c3ccccn3)c3ccccc32)C(C)C)o1 (stereo not drawn)

>  <study_system>
human neutrophil elastase (HNE) (Homo sapiens)

>  <pKi>
8.80

$$$$
>  <molecule>
Cc1cccc(Cc2nnc(C(=O)[C@@H](NC(=O)CN3C(=O)CN=C(c4ccccc4)c4ccccc43)C(C)C)o2)c1

>  <study_system>
human neutrophil elastase (HNE) (Homo sapiens)

>  <pKi>
8.85

$$$$

Attention now turns to another entry.
Challenge: Would you mind telling me what pKi value was observed for CC(C)[C@H](NC(=O)[C@@H]1CCCN1C(=O)[C@@H](NC(=O)c1cccnc1)C(C)C)C(=O)c1noc(Cc2cccc(C(F)(F)F)c2)n1 ?
Response given: 9.19
